Tested on: Monochoria vaginalis
experimental.details: Test Example 12: herbicidal effect test by treatment during growing period in paddy field
Format: in vivo
measurement.setup: 120 g/10a; treatment seven days after sowing in flooded paddy pot; assessed 14 days after treatment
class 1 if Weed suppression rate (%) Monochoria vaginalis is below 80%. class 0 if not; exact matches included in class 0.

These recorded examples may help you get a feel for the data.
compound="Cc1cc(F)ccc1N(C(=O)n1cnn(S(C)(=O)=O)c1=O)C(C)C [Compound 11-25]" label="class 1"
compound="Cc1ccc(S(=O)(=O)n2ncn(C(=O)N(c3ccc(Cl)cn3)C(C)C)c2=O)cc1 [Compound 11-661]" label="class 0"
compound="CC(C)N(C(=O)n1cnn(S(=O)(=O)c2ccccc2Cl)c1=O)c1ccc(F)cc1Cl [Compound 11-519]" label="class 1"
compound="CN(C(=O)n1cnn(S(=O)(=O)c2cccs2)c1=O)c1ccc(F)cc1F [Compound 11-1147]" label="class 0"
compound="CC(C)N(C(=O)n1cnn(S(=O)(=O)C2CC2)c1=O)c1ccccc1F [Compound 11-160]" label="class 1"
compound="CC(C)N(C(=O)n1cnn(S(=O)(=O)c2cccs2)c1=O)c1c(F)cccc1F [Compound 11-1024]" label="class 0"
compound="CC(C)N(C(=O)n1cnn(S(=O)(=O)c2c(F)c(F)c(F)c(F)c2F)c1=O)c1c(F)cc(F)cc1F [Compound 11-815]" label="class 1"
compound="CC(C)N(C(=O)n1cnn(S(=O)(=O)CCl)c1=O)c1ccc(F)cc1F [Compound 11-109]" label="class 0"

Incoming: Decide: Weed suppression rate (%) Monochoria vaginalis of C=CS(=O)(=O)n1ncn(C(=O)N(c2ccc(F)cc2F)C(C)C)c1=O [Compound 11-134] strictly below 80%?
Outgoing: class 1

Incoming: Would you kindly repeat that for CC(C)N(C(=O)n1cnn(S(=O)(=O)C2CC2)c1=O)c1ccc(C(F)(F)F)cc1Cl [Compound 11-220] ?
Outgoing: class 0

Incoming: What do you get for CC(C)N(C(=O)n1cnn(S(=O)(=O)c2ccc(F)cc2)c1=O)c1ccc(Br)cc1Cl [Compound 11-486] ?
Outgoing: class 1
